Test system: SNB-19 CNS
Test: NCI tumour cell line growth inhibition, 48 h
reported property: TGI

So what's the measured TGI for this one? CC1(C)N=C(N)N=C(N)N1c1cccc(OCc2cccc(N)c2)c1 > 100 µM

What about COC(=O)C1=CCON(c2ccccc2)C1c1ccccc1 (configuration not stated) ? > 100 µM

What about O=C(CC(C(=O)c1cccs1)c1ccc2c(c1)OCO2)c1ccc(Br)cc1 (configuration not stated) ? > 100 µM

What about CC(C)=CCC12Cc3ccc(O)cc3C(C(C)CN1)C2C (configuration not stated) ? > 100 µM

What about CCC(=O)Nc1ccc(NS(=O)(=O)c2ccc(Cl)cc2)cc1 ? > 100 µM

What about NC(Cc1[nH]nc2ccccc12)C(=O)O (configuration not stated) ? > 100 µM

What about COc1ccc(OC/C(N=Cc2ccncc2)=N/NC(=O)c2ccncc2)cc1 ? > 100 µM

What about Cc1cccc(NS(=O)(=O)c2ccc(N=Nc3c(O)c(C(=O)O)cc4ccccc34)cc2)n1 ? > 100 µM

What about CSc1nc2c(c(O)c(C)c(=O)n2C2OC(COC(C)=O)C(OC(C)=O)C(OC(C)=O)C2OC(C)=O)c(=O)n1C (configuration not stated) ? > 100 µM

What about CCCO/N=[N+](\[O-])N(CC)CC ? > 100 µM

What about CCC1(Br)C(=O)NC(=O)N(C2CC(O)C(CO)O2)C1N=[N+]=[N-] (configuration not stated) ? > 100 µM

What about Cn1c2c(c3ccccc31)CCN1C(=O)C34CCCC3CC21S4 (configuration not stated) ? > 100 µM

---

System: CAKI-1 renal
Experiment: NCI tumour cell line growth inhibition, 48 h
reported property: TGI

So what's the measured TGI for this one? Nc1cc2c3c(cccc3c1)NC2=O > 100 µM

What about COC(=O)c1nc(NN)[nH]c(=O)c1CCCCCc1c(C(=O)OC)[nH]c(NN)cc1=O ? > 100 µM

What about N#CC(C#N)SCc1ccccc1 ? > 100 µM

What about CCOc1ccc(N=Nc2ccc3cc(/C(C)=N/NC(=O)/C(C#N)=C\c4ccc(N(CCC#N)CCC#N)cc4)c(=O)oc3c2)cc1 ? > 10 µM

---

System: OVCAR-3 ovarian
Experiment: NCI tumour cell line growth inhibition, 48 h
Please go through the items and note down their TGI.
# number only, unit µM dropped from output

So what's the measured TGI for this one? C=C1C[C@@H]2CC[C@@]34C[C@H]5O[C@H]6[C@@H](O3)[C@H]3O[C@H](CC[C@@H]3O[C@H]6[C@H]5O4)CC(=O)C[C@@H]3[C@@H](OC)[C@@H](C[C@H](O)CN)O[C@H]3C[C@H]3O[C@@H](CC[C@@H]1O2)C[C@@H](C)C3=C 0.000836

What about Cc1ccc(C(=O)/C(=C/c2ccc([N+](=O)[O-])cc2)S(=O)Cc2ccccc2)cc1 (stereo unspecified) ? 2.57

What about COc1cc2nncc(Sc3cnnc4ccccc34)c2cc1OC ? 33.3

What about Cn1cc(C2=C(c3cn(C)c4ccc(N)cc34)C(=O)NC2=O)c2ccccc21 ? 16

---

System: M14 melanoma
Test: NCI tumour cell line growth inhibition, 48 h
reported property: TGI

So what's the measured TGI for this one? O=C1[C@@H](c2ccc(Cl)cc2)[C@H]2CC=C[C@H]2N1O > 100 µM

What about O=c1[nH]c(=O)n(C2CC(O)C(CO)O2)cc1OC/C=C/Cc1ccccc1 (stereo not drawn) ? > 100 µM

What about Fc1cccc(COc2ccc(Nc3ncnc4sc(-c5ccco5)cc34)cc2Cl)c1 ? > 25 µM

What about O=C(C(=O)c1ccc(Cc2ccc(C(=O)C(=O)c3ccccc3)cc2)cc1)c1ccccc1 ? > 100 µM

What about Cc1cc(Cl)ccc1NC(=O)C(=O)Cc1nc2ccc(C(=O)c3ccccc3)cc2[nH]c1=O ? > 100 µM

What about CC(C)(C)OC(=O)NCC(C#N)CNC(=O)OC(C)(C)C ? > 100 µM

What about COc1ccc(C2=C(Cl)C(=O)O/C2=C\c2ccc(OC)c(Br)c2)cc1Cl ? > 100 µM

What about O=C1c2ccccc2N2OC3(N4CCCC4)CCCC3C12c1ccccc1 (stereo not drawn) ? > 100 µM

What about c1c(N2CCOCC2)ssc1=[N+]1CCOCC1 ? > 100 µM

What about C=C(C)C1CC2C(C)=C(OC(C)=O)C1n1c(=O)c3cc4ccccc4cc3c(=O)n12 (stereo not drawn) ? > 100 µM

What about C/C(=N/N(C=O)C[n+]1ccccc1)C(CN(CC(C)C)CC(C)C)C(=O)Nc1ccc(C)cc1C (stereo not drawn) ? > 100 µM

What about NCCCCNCCCNC(=O)CNC(=O)CC(O)C(N)CCCC(NC(=O)C(CN)NC(=O)C(O)CNC(=O)CC(N)c1ccc(O)cc1)C(=O)O (stereo not drawn) ? > 10 µM

What about CC1(C)N=C(N)N=C(N)N1c1cccc(OCc2cccc(N)c2)c1 ? > 100 µM

---

Tested on: HOP-92 NSCLC
Assay: NCI tumour cell line growth inhibition, 48 h
Please go through the items and note down their TGI.

Tell me reported TGI for NCCCCNCCCNC(=O)CNC(=O)CC(O)C(N)CCCC(NC(=O)C(CN)NC(=O)C(O)CNC(=O)CC(N)c1ccc(O)cc1)C(=O)O (stereo not given) , tested with HOP-92 NSCLC. > 10 µM

What about O=c1oc2ccccc2c(O)c1C=NC(=S)c1ccncc1 ? > 100 µM

What about C=C(C)[C@H]1CC(=O)/C(C)=C\CC/C(C)=C/CC[C@@]2(C)O[C@@H]2C1 ? > 100 µM

What about COc1cc2[nH]c(=O)c3cc(-c4ccccc4)cc4c(Cl)nc(c1OC)c2c43 ? > 79.3 µM

What about Cn1nc2c(c1N)Cc1c(nn(C)c1N)-c1ccccc1-2 ? > 100 µM

---

Tested on: SF-539 CNS
Assay: NCI tumour cell line growth inhibition, 48 h
Please go through the items and note down their TGI.

So what's the measured TGI for this one? COc1cc2cc(Oc3ccc(NC(=O)c4cccc(C(F)(F)F)c4)cc3)c(C)nc2cc1OC > 100 µM

What about CCCCN1C(=O)CC2[C@@H]3CCc4cc(OC)ccc4C3CC[C@]2(C)C1=O (some centres undefined) ? > 10 µM

What about CCC(=O)Nc1ccc(NS(=O)(=O)c2ccc(Cl)cc2)cc1 ? > 100 µM

What about O=C1N/N=C\c2ccc(cc2)OCc2cccc(n2)COc2ccc(cc2)/C=N\NC1=O ? > 25 µM

What about COc1ccc([C@H]2CC(=O)N3CCCC3N2)cc1 (some centres undefined) ? > 100 µM

What about Cc1c(C)c2cc3c(=O)ccoc3c(C)c2oc1=O ? > 100 µM

What about O=c1ccn(-c2ccccn2)c(=O)n1-c1ccccn1 ? > 100 µM

What about COc1ccc(OC)c(-c2cc(-c3ccccc3)nn2-c2ccc(S(=O)(=O)NC(C)=O)cc2)c1 ? 60.4 µM

What about O=C1CS/C(=N/N=C/c2cn(Cc3ccc(Cl)cc3Cl)c3ccccc23)N1 ? 41 µM

What about CCCCCCCCCCCCOCCOCCOCCOCCOCCOCC(=O)NC(Cc1ccccc1)C(=O)Oc1ccc([N+](=O)[O-])cc1 (centres undefined) ? > 100 µM

What about COc1ccc2c(c1)-c1c(c3cc(OC)ccc3n1CCN(C)C)CC2 ? 29.8 µM

What about NC(N)=NS(=O)(=O)c1ccc(NC(=O)c2cccc3c(NNc4ccc(S(N)(=O)=O)cc4)c4ccccc4nc23)cc1 ? > 100 µM

What about CC(O)CNC1=CC(=O)C(=O)c2ccccc21 (centres undefined) ? 38.5 µM

What about CCc1nc(N)nc(N)c1-c1ccc([N+](=O)[O-])c(NCc2ccccc2)c1 ? 39.3 µM

---

Tested on: T-47D breast
Test: NCI tumour cell line growth inhibition, 48 h
reported property: TGI

So what's the measured TGI for this one? COc1ccc(C(=O)N2c3ccccc3Sc3ccccc32)c(F)c1 > 100 µM

What about N#CC(C#N)SCc1ccccc1 ? > 100 µM

What about Nc1cc2c3c(cccc3c1)NC2=O ? > 100 µM

What about Cc1nnc2n1-c1ccccc1N(Cc1ccccc1)CC2 ? > 100 µM

What about C/C(=N\O)c1ccc(Nc2cc(-n3nnc4ccccc43)nc3ccccc23)cc1 ? > 34.7 µM

What about CCC(=O)Nc1ccc(NS(=O)(=O)c2ccc(Cl)cc2)cc1 ? > 100 µM

---

Please go through the items and note down their TGI.
Test system: NCI-H460 lung
Assay: NCI tumour cell line growth inhibition, 48 h

Tell me reported TGI for O=C(Nc1ccc(OC(F)(F)F)cc1)c1sccc1NCc1ccnc2ccccc12 , tested with NCI-H460 lung. > 100 µM

What about C/C(=N/N(C=O)C[n+]1ccccc1)C(CN(CC(C)C)CC(C)C)C(=O)Nc1ccc(C)cc1C (configuration not stated) ? > 100 µM

What about NCCCCNCCCNC(=O)CNC(=O)CC(O)C(N)CCCC(NC(=O)C(CN)NC(=O)C(O)CNC(=O)CC(N)c1ccc(O)cc1)C(=O)O (configuration not stated) ? > 10 µM

What about CS(=O)(=O)c1ccc(Cl)c([N+](=O)[O-])c1 ? 40.8 µM

What about CC(C)c1ccc2nc3ccc(C(=O)NCCN(C)C)cn3c(=O)c2c1 ? 33.7 µM

What about Cc1cn(CCCCCOC(=O)NC(CCCNC(N)=O)C(=O)O)c(=O)[nH]c1=O (configuration not stated) ? > 100 µM

What about O=c1[nH]c(=O)n(C2CC(O)C(CO)O2)cc1OC/C=C/Cc1ccccc1 (configuration not stated) ? > 100 µM

What about CCN(c1ccc(CO)c(Cl)c1)C(C)c1ccc(F)cc1 (configuration not stated) ? 23.7 µM

What about COC1/C=C/OC2(C)Oc3c(C)c(O)c4c(c3C2=O)C(=O)C=C(NC(=O)/C(C)=C\C=C\C(C)C(OC=O)C(C)C(O)C(C)C(OC(C)=O)C1C)C4=O (configuration not stated) ? 42 µM

What about CC(C)n1c(/C=C/[C@@H](O)C[C@@H](O)CC(=O)O)c(-c2ccc(F)cc2)c2ccccc21 ? > 100 µM

What about CCc1nc(N)nc(N)c1-c1ccc([N+](=O)[O-])c(NCc2ccccc2)c1 ? 20.2 µM

What about COc1ccc(-c2cc(-c3ccc(Cl)cc3)c(C#N)c(=O)n2CCCCC(=O)Nc2ccccc2N)cc1 ? 56.6 µM

What about Nc1c(S(N)(=O)=O)cc(S(N)(=O)=O)cc1S(N)(=O)=O ? > 100 µM

What about C[N+]1(CCN=C=NC2CCCCC2)CCOCC1 ? > 100 µM

What about Nc1cc(N)c2nc(-c3ccccc3)c(Oc3ccc(F)cc3)nc2c1 ? > 100 µM

What about CCC(=O)Nc1ccc(NS(=O)(=O)c2ccc(Cl)cc2)cc1 ? > 100 µM

What about CC(=O)OC1CC2(O)C(CCC3(C)C(c4ccc(=O)oc4)CCC32O)C2(C)C1=CC(O)C1OC12 (configuration not stated) ? 0.0466 µM

What about CC1(C)N=C(N)N=C(N)N1c1cccc(OCc2cccc(N)c2)c1 ? > 100 µM

What about Cc1cccc(NS(=O)(=O)c2ccc(N=Nc3c(O)c(C(=O)O)cc4ccccc34)cc2)n1 ? > 100 µM

What about COC(=O)c1ccc2c(c1)C(NC(C)=O)CCc1cc(OC)c(OC)c(OC)c1-2 (configuration not stated) ? 3.23 µM

What about COc1cc2[nH]c(=O)c3cc(-c4ccccc4)cc4c(Cl)nc(c1OC)c2c43 ? > 82.9 µM

What about Clc1cc(C(c2cc(Cl)sc2Cl)c2cc(Cl)sc2Cl)c(Cl)s1 ? > 100 µM

What about N#C/C(=C\c1cccc(Br)c1)c1nc2ccccc2c(=O)[nH]1 ? > 100 µM

What about COCC#C[C@@]1(O)CCCCC1CC(OC)OC (some centres not stated) ? > 100 µM

What about COC(=O)C1=C(C)NC(C)=C(C(=O)OC)C1c1cccc(N=O)c1 ? 31 µM

What about CC[O-].CC[O-].O=C1C(=C([O-])c2ccccc2)C(=O)c2ccccc21.O=C1C(=C([O-])c2ccccc2)C(=O)c2ccccc21.[Ti+4] ? > 100 µM

What about CCCO/N=[N+](\[O-])N(CC)CC ? > 100 µM

What about COc1cc2nncc(Sc3cnnc4ccccc34)c2cc1OC ? 50.4 µM

What about O=CN1CCN(C(=O)c2ccco2)C1=S ? 42.1 µM

What about N#Cc1ccc(-c2nc(C#N)c(N)o2)cc1 ? > 10 µM

What about C#C[C@]1(O)CC[C@H]2[C@@H]3CC=C4c5nc(Nc6ccccn6)sc5CC[C@]4(C)[C@H]3CC[C@@]21C ? 2.83 µM

What about CN(C)CCNc1c([N+](=O)[O-])sc2ccc(Cl)cc12 ? > 100 µM
